assay: Plasma pharmacokinetics of CGA and metabolites after 400 mg green coffee extract, ten volunteers; assay type: in vivo, human; conditions: plasma, 400 mg green coffee extract oral, mean ± SD, n = 10
Consider the following molecules and their measured Cmax readings.
API: value field is a number in nM; no unit string.

// solved cases for Cmax follow
O=C(C=Cc1ccc(O)c(O)c1)OC1CC(O)(C(=O)O)CC(O)C1OC(=O)C=Cc1ccc(O)c(O)c1 (stereo not drawn) [4,5-diCQA, 4,5-dicaffeoylquinic acid]	2500
O=C(C=Cc1ccc(O)c(O)c1)OC1CC(O)(C(=O)O)CC(O)C1O (stereo not drawn) [3-CQA, 3-caffeoylquinic acid]	900

Kindly consider the entry below.
The molecule listed as O=C(C=Cc1ccc(O)c(O)c1)OC1CC(O)(C(=O)O)CC(O)C1O (stereo not drawn) [5-CQA, 5-caffeoylquinic acid] shows Cmax equal to 5900

* * *

Below, each entry is listed alongside its reported Tmax.
assay: Plasma pharmacokinetics of CGA and metabolites after 400 mg green coffee extract, ten volunteers; type: in vivo, human; settings: both sexes, human, plasma, po, 400 mg, plasma, 400 mg green coffee extract oral, mean ± SD, n = 10; read-out: Tmax
Reply numerically in h, unit not repeated.

Consider the worked cases shown below.
O=C(C=Cc1ccc(O)c(O)c1)OC1C(O)CC(O)(C(=O)O)CC1O (stereo not shown)	3.6
O=C(O)/C=C/c1ccc(O)cc1	2.5
COc1ccc(/C=C/C(=O)O)cc1O	2.9
O=C(O)/C=C/c1ccc(O)c(O)c1	3.6
O=C(C=Cc1ccc(O)c(O)c1)OC1CC(O)(C(=O)O)CC(OC(=O)C=Cc2ccc(O)c(O)c2)C1O (stereo not shown)	3.2
O=C(C=Cc1ccc(O)c(O)c1)OC1CC(O)(C(=O)O)CC(O)C1OC(=O)C=Cc1ccc(O)c(O)c1 (stereo not shown)	2.6

The record that follows has no Tmax shown yet.
Record `COc1cc(/C=C/C(=O)O)ccc1O` , field Tmax: 2.9

* * *

assay: Plasma pharmacokinetics of CGA and metabolites after 400 mg green coffee extract, ten volunteers; format: in vivo, human; conditions: both sexes, human, plasma, po, 400 mg, plasma, 400 mg green coffee extract oral, mean ± SD, n = 10; read-out: AUC
Measurement Name: AUC (µM·h)
Write the value in µM·h as a bare number.

Below, each entry is followed by its recorded AUC result.
O=C(C=Cc1ccc(O)c(O)c1)OC1CC(O)(C(=O)O)CC(O)C1OC(=O)C=Cc1ccc(O)c(O)c1 (stereo not shown)	5
COc1cc(/C=C/C(=O)O)ccc1O	3.6
O=C(C=Cc1ccc(O)c(O)c1)OC1CC(O)(C(=O)O)CC(OC(=O)C=Cc2ccc(O)c(O)c2)C1O (stereo not shown)	8.7
O=C(O)/C=C/c1ccc(O)cc1	0.8

Quick note, AUC for `O=C(O)/C=C/c1ccc(O)c(O)c1` landed at 3.8

Consider O=C(C=Cc1ccc(O)c(O)c1)OC1C(O)CC(O)(C(=O)O)CC1O (stereo not shown) . Its measured AUC is 4.3

What the record says about `COc1ccc(/C=C/C(=O)O)cc1O` : AUC is 3.5

* * *

assay: Plasma pharmacokinetics of CGA and metabolites after 400 mg green coffee extract, ten volunteers; format: in vivo, human; conditions: both sexes, human, plasma, po, 400 mg, 400 mg green coffee extract oral, mean ± SD, n = 10
Measurement Name: Cmax
Answer with the figure and its unit, nothing else.

Example cases with answers are listed next.
O=C(O)/C=C/c1ccc(O)c(O)c1 [Caffeic acid]	1100 nM
COc1ccc(/C=C/C(=O)O)cc1O [Isoferulic acid]	900 nM

get_value(item= O=C(O)/C=C/c1ccc(O)cc1 [p-coumaric acid] , readout=Cmax) returns 400 nM
